Measured protein stability index, listed per entry.
B1: PTPN9 (parent)
chain: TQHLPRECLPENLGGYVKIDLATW

Variants of: B1
protocolSummary: protein stability index of a GFP-peptide fusion (GPS, HEK-293T) (PSI 1-6); higher = more stable;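 further: lentivirally expressed fusions sorted by FACS into six bins by GFP to DsRed ratio, PSI derived from sequencing read proportions per bin multiplied by bin number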
testSettings: c terminus: a fixed tail appended

input: Output measured protein stability index for this item: E7P
output: 2.52

input: Output measured protein stability index for this item: C8P
output: 2.16
